# TESTED_TARGET: human topoisomerase II (Homo sapiens)
# Sequence (P11388 whole entry): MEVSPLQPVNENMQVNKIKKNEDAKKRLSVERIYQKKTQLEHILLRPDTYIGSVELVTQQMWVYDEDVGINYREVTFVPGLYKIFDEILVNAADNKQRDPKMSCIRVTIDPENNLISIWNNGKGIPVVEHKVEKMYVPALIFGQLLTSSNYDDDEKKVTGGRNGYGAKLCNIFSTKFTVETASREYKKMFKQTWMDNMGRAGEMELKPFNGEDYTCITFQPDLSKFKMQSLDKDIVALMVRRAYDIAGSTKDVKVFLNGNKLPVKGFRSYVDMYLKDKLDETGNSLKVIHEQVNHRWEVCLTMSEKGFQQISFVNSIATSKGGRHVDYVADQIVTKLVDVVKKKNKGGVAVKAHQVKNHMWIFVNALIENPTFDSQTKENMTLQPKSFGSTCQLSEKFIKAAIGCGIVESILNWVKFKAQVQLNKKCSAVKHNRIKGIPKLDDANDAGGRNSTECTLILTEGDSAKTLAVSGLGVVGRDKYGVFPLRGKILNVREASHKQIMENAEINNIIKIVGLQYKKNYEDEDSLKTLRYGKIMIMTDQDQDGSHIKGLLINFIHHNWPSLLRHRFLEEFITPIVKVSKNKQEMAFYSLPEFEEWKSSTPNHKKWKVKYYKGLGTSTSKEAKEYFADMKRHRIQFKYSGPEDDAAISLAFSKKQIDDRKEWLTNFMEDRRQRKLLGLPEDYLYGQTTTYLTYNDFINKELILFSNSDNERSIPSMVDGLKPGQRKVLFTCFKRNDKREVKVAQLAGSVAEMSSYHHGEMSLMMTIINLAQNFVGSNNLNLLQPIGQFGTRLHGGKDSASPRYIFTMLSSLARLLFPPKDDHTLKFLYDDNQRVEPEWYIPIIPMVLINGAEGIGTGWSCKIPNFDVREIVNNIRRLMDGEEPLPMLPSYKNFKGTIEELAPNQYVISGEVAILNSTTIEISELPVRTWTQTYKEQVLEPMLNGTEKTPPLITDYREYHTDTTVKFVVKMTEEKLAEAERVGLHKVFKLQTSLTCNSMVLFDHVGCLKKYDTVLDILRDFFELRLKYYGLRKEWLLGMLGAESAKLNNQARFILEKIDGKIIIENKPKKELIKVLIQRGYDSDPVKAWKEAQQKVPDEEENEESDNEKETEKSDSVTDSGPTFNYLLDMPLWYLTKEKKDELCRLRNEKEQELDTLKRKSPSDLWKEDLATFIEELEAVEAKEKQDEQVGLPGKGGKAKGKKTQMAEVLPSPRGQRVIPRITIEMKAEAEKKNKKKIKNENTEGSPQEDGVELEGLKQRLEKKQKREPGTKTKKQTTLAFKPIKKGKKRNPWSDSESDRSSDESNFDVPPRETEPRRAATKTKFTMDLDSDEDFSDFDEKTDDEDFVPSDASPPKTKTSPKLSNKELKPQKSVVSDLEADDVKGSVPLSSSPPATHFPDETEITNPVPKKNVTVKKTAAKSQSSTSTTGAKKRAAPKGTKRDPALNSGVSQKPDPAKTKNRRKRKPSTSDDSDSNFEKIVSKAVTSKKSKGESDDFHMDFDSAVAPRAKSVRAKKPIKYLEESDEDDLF
# PROTOCOL_SUMMARY: DNA Topo II inhibition (kDNA decatenation) assay
# Type: biochemical
# ASSAY_CONTEXT: conc 0.1 (μM)
MEASUREMENT_KIND: %inh TOPO II (%)

molecule="CCOC(=O)C1=C(C)N=C2SC=C(NC(=O)CN3CCN(CC)CC3)N2C1c1ccc(OC)cc1OC (centres unmarked) [Compound 6a]" reported_value=26
molecule="CCOC(=O)C1=C(C)N=c2sc(=Cc3cc(OC)c(OC)c(OC)c3)c(=O)n2C1c1ccc(OC)cc1OC (centres unmarked) [Compound 3d]" reported_value=28
molecule="CCOC(=O)C1=C(C)N=c2sc(=Cc3ccc(OC)cc3OC)c(=O)n2C1c1ccc(OC)cc1OC (centres unmarked) [Compound 3c]" reported_value=31
molecule="CCOC(=O)C1=C(C)N=C2SC=C(NC(=O)CN3CCOCC3)N2C1c1ccc(OC)cc1OC (centres unmarked) [Compound 6b]" reported_value=28
molecule="CCOC(=O)C1=C(C)N=C2SC=C(NC(=O)Nc3ccc(Cl)c(C(F)(F)F)c3)N2C1c1ccc(OC)cc1OC (centres unmarked) [Compound 7b]" reported_value=28

Origin of the recorded values: paper PMC9930781
